- PROTOCOL: stimulators of insulin release from INS-1E, primary screen, cell-based, 5 mM glucose, NPC library (AID 1117329); also: reference of the scale not given here
- CONDITION_SET: rat INS-1E insulin secretion, at 10 µM
Active and inactive are the calls of the source.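 The calls were made as follows: active = compound raises insulin release from rat beta cells at 5 mM glucose, no numeric limit stated; inactive = the rest.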
Allowed answers: true (1) = active, false (0) = inactive

Task item: Give the logged outcome of this assay for the following compound: `CCC(CC)(CC(=O)Nc1cccc(/C=C/c2nc(C3CCC3)cs2)c1)C(=O)O`
Reply: false (0)

Task item: Please state the recorded outcome for this compound: `CN=C(NC#N)NCCSCc1csc(N=C(N)N)n1`
Reply: false (0)

Task item: Status in this test for `CC(=O)O[C@@]12CO[C@@H]1C[C@H](O)[C@@]1(C)C(=O)[C@H](O)C3=C(C)[C@@H](OC(=O)[C@H](O)[C@@H](NC(=O)OC(C)(C)C)c4ccccc4)C[C@@](O)([C@@H](OC(=O)c4ccccc4)[C@H]21)C3(C)C` ?
Reply: false (0)

Task item: Tell me the assay call for `CCc1cccc(CC)c1NC(=O)CN(CC(=O)O)CC(=O)O` please.
Reply: false (0)

Task item: # outcome recorded in this test, key = `CO[C@H]1O[C@@H]2O[C@@]3(C)CC[C@H]4[C@H](C)CC[C@@H]([C@@H]1C)[C@@]24OO3`
Reply: false (0)

Task item: Please let me know the test result on file for `CN1C[C@H]2c3ccccc3Oc3ccc(Cl)cc3[C@@H]2C1` .
Reply: false (0)

Task item: Test call, this compound: `CC(=O)NCCCS(=O)(=O)O`
Reply: false (0)

Task item: # lookup: test call for `C#C[C@]1(OC(C)=O)CC[C@H]2[C@@H]3CCC4=C[C@@H](OC(C)=O)CC[C@@H]4[C@H]3CC[C@@]21C`
Reply: false (0)

Task item: So what was the verdict on `CN(N=O)C(=O)N[C@@H]1[C@@H](O)[C@H](O)[C@@H](CO)O[C@@H]1O` in this test?
Reply: false (0)

Task item: In this assay, the call recorded for `CNC(=O)c1cc(Oc2ccc(NC(=O)Nc3ccc(Cl)c(C(F)(F)F)c3)cc2)ccn1` was what?
Reply: false (0)

Task item: // param item: `NCCNCCNCCNCCN` ; yields the recorded call
Reply: false (0)

Task item: Hi, do you know how `COc1ccc(C=CC(=O)Nc2ccccc2C(=O)O)cc1OC` came out in this test?
Reply: false (0)

Task item: Write down the call the test reported for this compound. Item: `O=C(O)CN(CCN(CC(=O)O)CC(=O)O)CCN(CC(=O)O)CC(=O)O`
Reply: false (0)

Task item: Test call, this compound: C[N+](C)(C)CC(O)CC(=O)[O-] (stereo not drawn)
Reply: false (0)

Task item: What was the test verdict on `CC(C)C[C@H](NC(=O)[C@H](Cc1ccccc1)NC(=O)c1cnccn1)B(O)O` ?
Reply: false (0)

Task item: Fill in: this test's call for `C=CCn1c(=O)n([C@@H]2O[C@H](CO)[C@@H](O)[C@H]2O)c2nc(N)[nH]c(=O)c21` is ___
Reply: false (0)

Task item: Lab log entry: `CNCCc1ccccn1` — outcome as called in the assay?
Reply: false (0)

Task item: Entry `Cc1cccc(Nc2cc(Cl)nc(SCC(=O)O)n2)c1C` : call = ?
Reply: false (0)

Task item: Field: outcome | Entry: `CC(=O)[C@H]1CC[C@H]2[C@@H]3C=CC4=CC(=O)CC[C@@]4(C)[C@@H]3CC[C@]12C`
Reply: false (0)

Task item: Recorded call for `O=C(O)CCc1nc(-c2ccccc2)c(-c2ccccc2)o1` ?
Reply: false (0)

Task item: # lookup: test call for `CC(C)(C)NC[C@H](O)COc1cccc2c1CCCC2=O`
Reply: false (0)

Task item: Any idea what this test logged for `C[N+](C)(C)CCCCCCCCCC[N+](C)(C)C` ?
Reply: false (0)

Task item: // param item: `C[C@]12CC[C@@H]3c4ccc(O)cc4CC[C@H]3[C@@H]1CC[C@@H]2OC(=O)CCC1CCCC1` ; yields the recorded call
Reply: false (0)

Task item: Fill in: this test's call for `CNCCCN1c2ccccc2CCc2ccccc21` is ___
Reply: false (0)

Task item: For `COc1ccc(O)cc1` , which call appears in the assay record?
Reply: false (0)

Task item: Called result for Clc1ccc(C(Cn2ccnc2)OCc2ccc(Sc3ccccc3)cc2)c(Cl)c1 (stereo not drawn)
Reply: false (0)

Task item: Outcome logged for `O=C(O)c1ccc(-n2nc(-c3ccccc3O)nc2-c2ccccc2O)cc1` in this assay:
Reply: false (0)

Task item: # fetch the recorded call for `NC(=O)n1c(O)c(C(=O)c2cccs2)c2cc(Cl)ccc21` here
Reply: false (0)

Task item: Tell me the recorded outcome of this test for `CC(C)c1c(C(=O)Nc2ccccc2)c(-c2ccccc2)c(-c2ccc(F)cc2)n1CC[C@@H](O)C[C@@H](O)CC(=O)O` .
Reply: false (0)

Task item: Per the records of this test, what outcome belongs to `O=c1[nH]c(=O)c2ccccc2o1` ?
Reply: false (0)

Task item: Given `CCCCOCCOCCOCc1cc2c(cc1CCC)OCO2` , state the outcome it received in this test.
Reply: false (0)

Task item: I would be grateful if you could indicate the recorded call for `NC(CO)(CO)CO` .
Reply: false (0)

Task item: Recorded test call requested for `Cc1ccc(Nc2nccc(N(C)c3ccc4c(C)n(C)nc4c3)n2)cc1S(N)(=O)=O`
Reply: false (0)

Task item: What is the recorded call for this compound in the test? `C#CCN(C)CCCOc1ccc(Cl)cc1Cl`
Reply: false (0)

Task item: Which outcome did this test record for the compound `CCCCC[C@@H](O)CC[C@H]1[C@@H]2Cc3cccc(OCC(=O)O)c3C[C@@H]2C[C@@H]1O` ?
Reply: false (0)

Task item: Record lookup: outcome of this test for `O=C(NOCC1CC1)c1ccc(F)c(F)c1Nc1ccc(I)cc1Cl` ?
Reply: false (0)

Task item: State the result this test recorded for `O=S(=O)(O)Oc1ccc(C(c2ccc(OS(=O)(=O)O)cc2)c2ccccn2)cc1` .
Reply: false (0)

Task item: Dear colleague, could you share the recorded outcome for `Cc1c(C)n(CCN(C)C)c2ccc(C(=O)OCCN(C)C)cc12` when you have a moment?
Reply: false (0)

Task item: Any idea what this test logged for `CN(C)CCN(Cc1ccc(Cl)cc1)c1ccccn1` ?
Reply: true (1)

Task item: How did this test come out for `O=C1c2ccccc2S(=O)(=O)N1CCCCN1CCN(c2ncccn2)CC1` ?
Reply: false (0)

Task item: Query: recorded result category for `O=C(OCc1ccccc1)c1cccnc1` in this test
Reply: false (0)

Task item: Hi, do you know how `C[C@]12CCC(=O)C=C1CC[C@@H]1[C@@H]2CC[C@@]2(C)[C@H]1CC[C@]2(O)C(=O)CO` came out in this test?
Reply: false (0)

Task item: Please share the test call associated with `CCOC(=O)c1ccc(C#Cc2ccc3c(c2)C(C)(C)CCS3)nc1` .
Reply: false (0)
